- System: A549 NSCLC
- experimental-protocol: NCI tumour cell line growth inhibition, 48 h
quantity: TGI

INSERT INTO assay_data (compound, tested_target, quantity, observed) VALUES
  ('O=C(Nc1cccc(-n2cc(-c3ccncc3)c(-c3ccc(Cl)c(O)c3)n2)c1)Nc1cc(C(F)(F)F)cc(C(F)(F)F)c1', 'A549 NSCLC', 'TGI', '1.38 µM'),
  ('COC1CC(O[C@H]2CC[C@@]3(C)[C@H](CC[C@@H]4[C@@H]3CC[C@]3(C)[C@@H](C5=CC(=O)OC5)[C@@H](OC(C)=O)C[C@]43O)C2)OC(C)C1O (some centres not stated)', 'A549 NSCLC', 'TGI', '< 0.01 µM'),
  ('O=C(c1ccc(Cl)cc1Cl)C1[C@H]2C(=O)N(c3ccc(Cc4ccc(N5C(=O)[C@@H]6ON(c7ccccc7)C(C(=O)c7ccc(Cl)cc7Cl)[C@@H]6C5=O)cc4)cc3)C(=O)[C@H]2ON1c1ccccc1 (some centres not stated)', 'A549 NSCLC', 'TGI', '> 50 µM'),
  ('C=C[C@@H](C)[C@H](NS(=O)(=O)c1ccc(C)cc1)C(=O)OCC', 'A549 NSCLC', 'TGI', '> 100 µM'),
  ('COc1ccc(N2C(=O)CC(=O)N(C(=O)COc3ccc(OCC(=O)N4C(=O)CC(=O)N(c5ccc(OC)cc5)C4=S)cc3)C2=S)cc1', 'A549 NSCLC', 'TGI', '> 100 µM'),
  ('Cc1ccc(S(=O)(=O)n2c3ccc(Br)cc3c3nc4ccccc4nc32)cc1', 'A549 NSCLC', 'TGI', '> 100 µM'),
  ('CCCCCCCC/C=C\CCCCCCC/C=C1\C[C@](/C=C/C(=O)OC)(CO)OC1=O', 'A549 NSCLC', 'TGI', '17.8 µM');

====

- Test system: SF-539 CNS
- experimental-protocol: NCI tumour cell line growth inhibition, 48 h
quantity: TGI (µM)

INSERT INTO results (smiles_repr, quantity, reported_relation, observed) VALUES
  ('COc1cc2nc(N3CCCC3)nc(NCc3ccccc3)c2cc1OC', 'TGI', '=', 3.12),
  ('COc1ccc(CCN2CC=Cn3c2nc2ccccc2c3=O)cc1', 'TGI', '=', 0.0627),
  ('O=C1C(Nc2ccc(Cl)cc2)=C(I)C(=O)c2ncccc21', 'TGI', '=', 3),
  ('Cc1ccc([S@](=O)c2occc2C=O)cc1', 'TGI', '=', 25.8),
  ('Cc1cc(-c2nc3cc(F)ccc3s2)ccc1NC(=O)[C@@H](N)CCCCN', 'TGI', '=', 9.73),
  ('O=c1[nH]nc(-c2ccccc2)n1/N=C\c1ccccc1', 'TGI', '>', 100),
  ('CCCCCCC[CH2][Sn]([CH2]CCCCCCC)([O]c1cccc2cccnc12)[O]c1cccc2cccnc12', 'TGI', '=', 4.68),
  ('COc1ccc2c(CN3CCCC[C@H]3C(=O)O)cc3cc4c(cc3c2c1)OCO4', 'TGI', '=', 16.2),
  ('COC(OC)[C@@H]1OC[C@H](n2cnc3c(N)ncnc32)[C@H]1O', 'TGI', '>', 100);

====

- Test system: HOP-92 NSCLC
- experimental-protocol: NCI tumour cell line growth inhibition, 48 h
Quick list: TGI per entry.
quantity: TGI (µM)

INSERT INTO assay_data (compound, quantity, reported_relation, observed) VALUES
  ('O=C1CCCCC1S(=O)(=O)c1ccccc1 (stereo unspecified)', 'TGI', '>', 100),
  ('O=C1NNC2(C(=O)N1)c1ccccc1-c1ccccc12', 'TGI', '>', 10),
  ('CC(C)(C)C(=O)OCC1C(=O)OCC1C(=O)N1Cc2cc3ccccc3nc2C1 (stereo unspecified)', 'TGI', '=', 3.69),
  ('CCN(CC)N1C(=O)[N+](CC)(CC)N=C1[O-]', 'TGI', '>', 100),
  ('O=C(N/N=C/C=C/c1ccc([N+](=O)[O-])o1)c1cc2ccccc2cc1O', 'TGI', '=', 5.52),
  ('CCOC(=O)CC[C@H](NC(=O)c1nc[nH]c1[N+](=O)[O-])C(=O)OCC', 'TGI', '>', 100),
  ('NC(=O)N/N=C1/CCC(O)CC1CC(=O)O (stereo unspecified)', 'TGI', '>', 100),
  ('O=C1C=CC(=O)C2=C1[C@@H](O)C1CC=CC3C(=O)O[C@@H]2C31 (stereo partly specified)', 'TGI', '=', 45.4),
  ('CC(NC(=O)C(NC(=O)CNC(=O)OC(C)(C)C)C(C)C)C(=O)Oc1c(Cl)c(Cl)c(Cl)c(Cl)c1Cl (stereo unspecified)', 'TGI', '=', 41.3),
  ('Cc1ccc([S@](=O)c2occc2C=O)cc1', 'TGI', '=', 7.78),
  ('Cc1ccc2c(c1)-c1c3c(nn1-c1ccccc1)-c1ccccc1SC3O2 (stereo unspecified)', 'TGI', '>', 100);

====

- System: DU-145 prostate
- experimental-protocol: NCI tumour cell line growth inhibition, 48 h; in the data active means GI50 below about 0.43 µM; inactive means the rest
Labels: Y (active), N (inactive)

INSERT INTO assay_data (molecule, category_label) VALUES
  ('C#CC#CC#CC#CC#CC#CC#CC#CCC1OCC(COC(=O)O[C@@H](C(=O)O[C@H]2C[C@@]3(O)[C@@H](OC(=O)c4ccccc4)[C@@H]4[C@]5(OC(C)=O)CO[C@@H]5C[C@H](O)[C@@]4(C)C(=O)[C@H](OC(C)=O)C(=C2C)C3(C)C)[C@@H](NC(=O)c2ccccc2)c2ccccc2)O1 (stereo partly specified)', 'Y'),
  ('NCCCC[C@@H]1NC(=O)[C@H]2CCCN2C(=O)[C@H](Cc2ccccc2)CNC(=O)[C@H](Cc2ccccc2)NC1=O', 'N'),
  ('O=C1c2cc3c(cc2[C@@H]2[C@H]1c1ccc([N+](=O)[O-])cc1C(=O)N2CCCBr)OCO3', 'Y'),
  ('Cc1c(Cl)cccc1C(=O)Nc1nc2c(s1)CN(C(=O)c1ccc(C(F)(F)F)cc1)CC2', 'Y'),
  ('COc1ccc2c(c1)NC1=C(C(=O)OC1)C2c1cc(OC)c2c(c1)OCO2 (stereo unspecified)', 'Y'),
  ('COC1CC(O[C@H]2CC[C@@]3(C)[C@H](CC[C@@H]4[C@@H]3CC[C@]3(C)[C@@H](C5=CC(=O)OC5)[C@@H](OC(C)=O)C[C@]43O)C2)OC(C)C1O (stereo partly specified)', 'Y'),
  ('Cc1cc2c(cc1Cl)SC1=NN(C)C(C)N1S2(=O)=O (stereo unspecified)', 'N'),
  ('Cn1ncnc1[C@H]1c2n[nH]c(=O)c3cc(F)cc(c23)N[C@@H]1c1ccc(F)cc1', 'N'),
  ('CCCCOC(=O)N1CCN(/[N+]([O-])=N/Oc2ccc([N+](=O)[O-])cc2[N+](=O)[O-])CC1', 'N'),
  ('COc1cc2nc(N3CCCC3)nc(NCc3ccccc3)c2cc1OC', 'N'),
  ('Cc1cccc(/C=N/NC(=S)N2CCCC2)n1', 'N');

====

- Tested on: HCT-116 colon
- experimental-protocol: NCI tumour cell line growth inhibition, 48 h
Quick list: TGI per entry.
quantity: TGI

INSERT INTO assay_data (compound, observed) VALUES
  ('O=C(/C=C/Sc1cc(C(F)(F)F)cc(C(F)(F)F)c1)c1ccc(Cl)cc1', '4.09 µM'),
  ('CC1CCC/C1=C(/I)C(=O)c1ccccc1 (stereo unspecified)', '> 100 µM'),
  ('C=Cc1cncc(C#N)c1CCc1c(C#N)cncc1C=C', '> 100 µM'),
  ('CC(=C(c1ccccc1)c1ccccc1)N1C(=O)CC(=O)N1C', '> 100 µM'),
  ('CCNCCCn1c2c(c3ccc(Cl)cc3c1=O)C(=O)c1cc(OC)cnc1-2', '1.56 µM'),
  ('Cc1[nH]c2ccccc2c1CCCO', '> 100 µM'),
  ('Cc1ccc(/C(O)=C/c2nc3ccccc3sc2=O)c(C)c1', '> 100 µM'),
  ('COc1cccc(N2C(=O)C3c4[nH]c5ccccc5c4C4CCCC4C3C2=O)c1 (stereo unspecified)', '7.16 µM'),
  ('Cc1cc(S(=O)(=O)N/C(=C(\C#N)C(=O)c2ccc(Cl)cc2)[n+]2ccc(N(C)C)cc2)c([S-])cc1Cl', '37.3 µM'),
  ('O=S(=O)(/C=C/c1ccc(F)cc1)Cc1ccc(CS(=O)(=O)/C=C/c2ccc(F)cc2)cc1', '> 100 µM'),
  ('ClCCCc1ccccc1C1=NCCc2ccccc21', '> 100 µM');

====

Quick list: TGI per entry.
- System: RXF 393 renal
- experimental-protocol: NCI tumour cell line growth inhibition, 48 h
quantity: TGI (µM)

INSERT INTO results (compound, reported_relation, observed) VALUES
  ('CCOc1cc2c(C(=O)CC)c(O)ccc2o1', '>', 95.7),
  ('COc1ccc(CC(N)c2ccc(OC)cc2)cc1 (stereo not drawn)', '>', 100),
  ('NC(=O)NNc1nc(-c2ccccc2)cs1', '>', 100),
  ('C=C/C(C)=C\CC1[C@](C)(O)CC[C@H]2C(C)(C)C(=O)CC[C@]12C (stereo partly drawn)', '>', 100),
  ('Cc1csc(NC23CC4CC(CC(C4)C2)C3)[n+]1C(P(=O)([O-])O)P(=O)(O)O (stereo not drawn)', '>', 100),
  ('O=C1C(Cl)=C(OCCCl)C(=O)c2c(O)ccc(O)c21', '=', 18.6),
  ('Cc1cccc(Nc2nn3c(=O)c4c5c(sc4nc3s2)CCCC5)c1', '=', 62.8),
  ('CCCCC(=O)c1c(O)nc2sccn2c1=O', '>', 10),
  ('C/C=C/c1cc(=O)c([C@@H]2OC(=O)c3cc(OC)cc(OC)c32)co1', '>', 100),
  ('CC(=O)NCCC1CN(C(=O)/C=C/I)c2ccccc21 (stereo not drawn)', '=', 10.8),
  ('CN1CCN(C(=O)C(C)(C)c2ccc(C(=O)Nc3cn4cc(-c5ccncc5)ccc4n3)cc2)CC1', '=', 1.01),
  ('Cc1cc2c(C(C)C)c(O)c(O)cc2c(O)c1-c1c(C)cc2c(C(C)C)c(O)c(O)cc2c1O', '=', 33.5),
  ('CCC1(c2ccccc2)Sc2ccccc2-n2cccc2C1=O (stereo not drawn)', '>', 10),
  ('O=C(/C=C/Sc1cc(C(F)(F)F)cc(C(F)(F)F)c1)c1ccc(Cl)cc1', '=', 25.3),
  ('CC1(C)N/C(=C\C=O)C(C)(C)N1O', '>', 100),
  ('CC(=O)Oc1cc2c(cc1OC(C)=O)OCC(c1ccc(C)cc1)C2 (stereo not drawn)', '=', 34.6),
  ('Cc1cc(F)ccc1S(=O)(=O)Nc1cc(-c2c(O)ccc3ccccc23)c(O)c2ccccc12', '=', 9.11),
  ('CC(C)(C)C(=O)OCC1C(=O)OCC1C(=O)N1Cc2cc3ccccc3nc2C1 (stereo not drawn)', '=', 3.27),
  ('Cc1cn(C2CC3C(COCN3O)O2)c(=O)[nH]c1=O (stereo not drawn)', '>', 100),
  ('N#C/C(=C\c1ccsc1)c1nc2ccccc2o1', '>', 100),
  ('COc1cc(C(=O)c2c(-c3ccccc3)oc3c(OC)cccc23)cc(OC)c1OC', '=', 4.69),
  ('c1cncc(C2N3CCCCC3[C@@H]3c4[nH]c5ccccc5c4CCN23)c1 (stereo partly drawn)', '>', 100),
  ('COC(C(=O)NN)c1ccccc1 (stereo not drawn)', '>', 100),
  ('CN(C)C(=O)OC1C(=O)N(C)c2ccc(Cl)cc2C2(c3ccccc3)N1C2(Cl)Cl (stereo not drawn)', '>', 100),
  ('CCCCCCC[CH2][Sn]([CH2]CCCCCCC)([O]c1cccc2cccnc12)[O]c1cccc2cccnc12', '=', 8.07),
  ('C/C(O)=C(/C=N/C(=S)Nc1ccc(S(N)(=O)=O)cc1)C(=O)Nc1ccccc1C', '>', 100),
  ('C[C@H](OCc1ccccc1)C(=O)N1CCS(=O)(=O)N2CCC[C@@H]2C1=O', '>', 100),
  ('CC(CN(C)C)/C(=N\Nc1ccccc1)c1ccccc1 (stereo not drawn)', '=', 65.4),
  ('CC(C)CCCC(C)[C@H]1CCC2[C@@H]3CCC4Cc5nc6c(nc5C[C@]4(C)C3CC[C@@]21C)CC1CC[C@@H]2C(CC[C@@]3(C)C2CC[C@@H]3C(C)CCCC(C)C)[C@@]1(C)C6 (stereo partly drawn)', '>', 100),
  ('CCCCOC(=O)N1CCN(/[N+]([O-])=N/Oc2ccc([N+](=O)[O-])cc2[N+](=O)[O-])CC1', '=', 40.4),
  ('COc1cc2ccnc3c2c(c1OC)-c1coc(SC)c1-3', '=', 52.1),
  ('CC(=O)N1CC(C)(C)c2c(C)c(O)c(C)c(C)c21', '>', 100),
  ('NCCCN(CCCN(C(=O)Nc1ccccc1)c1ccccc1)C(=O)Nc1ccccc1', '=', 86.2),
  ('C=C(C(N)=O)c1ccc([N+](=O)[O-])o1', '=', 9.64),
  ('O=C(NCCCCCCCCCCCCNC(=O)Nc1cccc2ccccc12)Nc1cccc2ccccc12', '=', 30.6),
  ('CSCSSC', '>', 100),
  ('CC1CCCC2(CC[N+](C)(CCC[N+](C)(C)C)CC2)C1 (stereo not drawn)', '>', 100),
  ('C=C1CC2OC(=O)C(=C)C2C(O)C2C(=C)CCC12 (stereo not drawn)', '=', 17.7),
  ('C=Cc1cncc(C#N)c1CCc1c(C#N)cncc1C=C', '>', 100),
  ('CN(C)CCN1C(=O)c2c(c3c4ccccc4n4c3c3c2c2ccccc2n3C2CC(O)C(O)C4(C)O2)C1=O (stereo not drawn)', '=', 8.27),
  ('Cc1ccc2c(=O)cc(-c3ccc(Cl)s3)[nH]c2n1', '>', 25.7),
  ('CCOc1ccc(N/C(=C(/C(Cl)=C(/Cl)N(CC)CC)[N+](=O)[O-])n2nnc3ccccc32)cc1', '=', 29.2),
  ('O=C1C(c2ccccc2)=C(O)c2cccc3cccc1c23', '>', 100);
